- Measurement protocol: Aqueous solubility of the compound in phosphate buffer at pH 7 after 48 hrs by spectrophotometric analysis
- Type: physicochemical
Reported property: solubility at 48 h (µg/mL)

A selection of reference data follows.
>  <Query smiles>
COc1cc(C(=O)c2ccc(N(C)C)c([N+](=O)[O-])c2)cc(OC)c1OC

>  <solubility at 48 h (µg/mL)>
3.7

$$$$
>  <Query smiles>
C=C(c1ccc(N(C)C)cc1)c1cc(OC)c(OC)c(OC)c1

>  <solubility at 48 h (µg/mL)>
30

$$$$

1 = C=C(c1cc(OC)c(OC)c(OC)c1)c1ccc2c(c1)c1ccccc1n2CC
2 = CCn1c2ccccc2c2cc(/C(=N/O)c3cc(OC)c(OC)c(OC)c3)ccc21
3 = C=C(c1ccc(N(C)C)c(C=NO)c1)c1cc(OC)c(OC)c(OC)c1
Kindly order the items shown according to solubility at 48 h, from the highest value down. Answer by listing the labels in the order asked for.
3, 2, 1
(3: 123 µg/mL, 2: 4.2 µg/mL, 1: 2.5 µg/mL)
